# measurement target: Nsp3 Ubl1 (SARS-CoV-2, UniProt P0DTD1 819-2763)
# protocol summary: FP
measurement label: pKd
Interpret pKd as the negative base-10 log of the concentration measured in mol/L.

> print(dat)
                                   binder  measurement.label  quantitative.result
1    SDEGALLDQLYLALRN [NCOA2_(1074–1089)]                pKd                 4.59
2  DAALALLLLDRLNQLE [N_(216–231) peptide]                pKd                 4.19

Req: pKd for CPSLSEEILRCLSLHD [NYNRIN_(1031–1046)] ?
Resp: 3.82
